Values compiled from patent US10941157B2.

Some compounds, each annotated with its measured IC90.
System: Botrtyis cinerea (Bc)
Test: In vitro pathogen growth inhibition assay, Bc
Format: cell-based
Conditions: 48 h, ≥90% growth inhibition; 48 hours; vs 2% DMSO control; read-out: Compound Concentration (ppm) sufficient for ≥90% inhibition of Bc
Reply numerically in µg/mL, unit not repeated.

Solved entries (count: 2):
chemical_string=COc1ccc(F)cc1[C@@H](O)Cn1c(=O)n([C@@H](C)C(=O)N2CCCC2)c(=O)c2c(C)c(-n3nccn3)sc21 measurement_name=IC90 assay_value=10
chemical_string=COc1ccccc1[C@H](Cn1c(=O)n(C(C)(C)C(=O)NC(C)C)c(=O)c2c(C)c(-n3nccn3)sc21)O[C@H]1CC[C@@H](O)CC1 measurement_name=IC90 assay_value=0.4

Looking up `CCOC(=O)c1sc2c(c1C)c(=O)n([C@H](C)C(=O)N(C)C(C)C)c(=O)n2C[C@H](OCCC#N)c1cc(F)ccc1OC` , I found its IC90 recorded as 2

Looking up `COc1ccc(F)cc1[C@H](Cn1c(=O)n(C(C)(C)C(N)=O)c(=O)c2c(C)c(-n3nccn3)sc21)OCC(C)C` , I found its IC90 recorded as 2

Looking up `COc1ccc(F)cc1[C@H](Cn1c(=O)n([C@H](C)C(=O)N(C)C(C)C)c(=O)c2c(C)c(-n3nccn3)sc21)OCCC#N` , I found its IC90 recorded as 0.4

Looking up `COc1ccccc1[C@H](Cn1c(=O)n([C@H](C)C(=O)NC(C)C)c(=O)c2c(C)c(-n3cccn3)sc21)OCCC#N` , I found its IC90 recorded as 2

Looking up `CCOC(=O)c1sc2c(c1C)c(=O)n(C(C)(C)C(=O)N1CCCC1)c(=O)n2C[C@H](OCCOC)c1cc(F)ccc1OC` , I found its IC90 recorded as 2

Looking up `COc1ccc(F)cc1[C@H](Cn1c(=O)n([C@H](C)C(=O)NC2CCC2)c(=O)c2c(C)c(-n3cccn3)sc21)OCCC#N` , I found its IC90 recorded as 0.4

Looking up `COc1ccc(F)cc1[C@H](Cn1c(=O)n(C(C)(C)C(=O)NC(C)C)c(=O)c2c(C)c(-n3nccn3)sc21)OCC#N` , I found its IC90 recorded as 0.4

Looking up `COc1ccc(F)cc1[C@H](Cn1c(=O)n(C(C)(C)C(=O)NC(C)C)c(=O)c2c(C)c(-n3nccn3)sc21)OC(C)=O` , I found its IC90 recorded as 0.4

Looking up `CCOC(=O)c1sc2c(c1C)c(=O)n([C@H](C)C(=O)N1CCCC1)c(=O)n2C[C@H](OCCC#N)c1cc(F)ccc1OC` , I found its IC90 recorded as 2

Looking up `CCOC(=O)c1ccc(F)cc1[C@H](Cn1c(=O)n(C(C)(C)C(=O)NC(C)C)c(=O)c2c(C)c(-n3nccn3)sc21)OCCC#N` , I found its IC90 recorded as 10

Looking up `COc1ccc(F)cc1[C@H](Cn1c(=O)n(C(C)(C)C(=O)NC(C)C)c(=O)c2c(C)c(-n3cccn3)sc21)OCCC#N` , I found its IC90 recorded as 0.4

###

Test system: Collectotrichum graminicola (Cg)
Assay: In vitro pathogen growth inhibition assay, Cg
Type: cell-based
Settings: 48 h, ≥90% growth inhibition; 48 hours; vs 2% DMSO control; read-out: Compound Concentration (ppm) sufficient for ≥90% inhibition of Cg
Measurement Name: IC90 (µg/mL)
Reply numerically in µg/mL, unit not repeated.

Solved entries (count: 5):
chemical_string=COCCO[C@@H](Cn1c(=O)n(C(C)(C)C(=O)NC(C)C)c(=O)c2c(C)c(-n3nccn3)sc21)c1cc(F)ccc1C assay_value=2
chemical_string=COc1ccc(F)cc1[C@H](Cn1c(=O)n(C(C)(C)C(=O)N2CCCC2)c(=O)c2c(C)c(-n3cccn3)sc21)OCCC#N assay_value=50
chemical_string=CNC(=O)C(C)(C)n1c(=O)c2c(C)c(-n3nccn3)sc2n(C[C@H](OCCC#N)c2cc(F)ccc2OC)c1=O assay_value=10
chemical_string=CCOC(=O)c1sc2c(c1C)c(=O)n(C(C)(C)C(=O)NC(C)C)c(=O)n2C[C@H](OCC(C)(C)C#N)c1cc(F)ccc1OC assay_value=0.4
chemical_string=CCNC(=O)C(C)(C)n1c(=O)c2c(C)c(-n3cccn3)sc2n(C[C@H](OCCC#N)c2ccccc2OC)c1=O assay_value=10

Looking up `COc1ccc(F)cc1[C@H](Cn1c(=O)n([C@@H](C)C(=O)N(C)C(C)C)c(=O)c2c(C)c(-n3cccn3)sc21)OCCC#N` , I found its IC90 recorded as 2

Looking up `COc1ccc(F)cc1[C@H](Cn1c(=O)n(C(C)(C)C(=O)NC(C)C)c(=O)c2c(C)c(-n3nccn3)sc21)O[C@H]1CC[C@@H](O)CC1` , I found its IC90 recorded as 2

Looking up `COc1ccc(F)cc1[C@@](C)(Cn1c(=O)n(C(C)(C)C(=O)NC(C)C)c(=O)c2c(C)c(-n3nccn3)sc21)OCCC#N` , I found its IC90 recorded as 0.08

Looking up `COc1ccc(F)cc1[C@@H](O)Cn1c(=O)n([C@@H](C)C(=O)N2CCCC2)c(=O)c2c(C)c(-n3nccn3)sc21` , I found its IC90 recorded as 10

###

Tested on: Rhizoctonia solani (Rs)
Assay: In vitro pathogen growth inhibition assay, Rs (mycelial plugs)
Assay type: cell-based
Conditions: Rhizoctonia solani, 48 h, ≥90% growth inhibition; mycelial plugs; 48 hours; vs 2% DMSO control; read-out: Compound Concentration (ppm) sufficient for ≥90% inhibition of Rs
Measurement Name: log10(IC90) (log10 of the value in µg/mL)
// do not treat as linear: log10 of IC90, unit µg/mL

Looking up COCCO[C@@H](Cn1c(=O)n(C(C)(C)C(=O)NC(C)C)c(=O)c2c(C)c(-n3nccn3)sc21)c1cc(F)ccc1C [Compound I-248] , I found its log10(IC90) recorded as 1.00

Looking up CCOC(=O)c1sc2c(c1C)c(=O)n(C(C)(C)C(=O)NC(C)C)c(=O)n2C[C@H](OCCC#N)c1ccccc1OC [Compound I-233] , I found its log10(IC90) recorded as 0.30

Looking up COc1ccc(F)cc1[C@H](Cn1c(=O)n([C@@H](C)C(=O)N2CCCC2)c(=O)c2c(C)c(-n3cccn3)sc21)OCCC#N [Compound I-313] , I found its log10(IC90) recorded as 1.70

Looking up CCOC(=O)c1sc2c(c1C)c(=O)n(C(C)(C)C(=O)N1CCCC1)c(=O)n2C[C@H](OCCO)c1cc(F)ccc1OC [Compound I-178] , I found its log10(IC90) recorded as -0.40

Looking up COc1ccc(F)cc1[C@H](Cn1c(=O)n(C(C)(C)C(=O)NC(C)C)c(=O)c2c(C)c(-n3nccn3)sc21)OC[C@H](C)C#N [Compound I-212] , I found its log10(IC90) recorded as -1.10

Looking up CCOC(=O)c1sc2c(c1C)c(=O)n(C(C)(C)C(=O)NC(C)C)c(=O)n2C[C@H](OC[C@H](C)C#N)c1cc(F)ccc1OC [Compound I-259] , I found its log10(IC90) recorded as -1.10

Looking up COc1ccc(F)cc1[C@H](Cn1c(=O)n([C@@H](C)C(=O)N(C)C(C)C)c(=O)c2c(C)c(-n3cccn3)sc21)OCCO [Compound I-244] , I found its log10(IC90) recorded as -0.40

Looking up CCOC(=O)c1sc2c(c1C)c(=O)n(C(C)(C)C(=O)N1CCCCC1)c(=O)n2C[C@H](OC1CCOCC1)c1ccccc1OC [Compound I-168] , I found its log10(IC90) recorded as 0.30

###

Tested on: Collectotrichum graminicola (Cg)
Assay: In vitro pathogen growth inhibition assay, Cg
Assay type: cell-based
Conditions: 48 h, ≥90% growth inhibition; 48 hours; vs 2% DMSO control; read-out: Compound Concentration (ppm) sufficient for ≥90% inhibition of Cg
Measurement Name: IC90

Summary: COc1ccccc1[C@H](Cn1c(=O)n(C(C)(C)C(=O)NC(C)C)c(=O)c2c(C)c(-n3nccn3)sc21)OCCC#N [Compound I-193] , Collectotrichum graminicola (Cg), IC90 = ≥ 0.08 µg/mL

Summary: COc1ccccc1[C@H](Cn1c(=O)n(C(C)(C)C(=O)N2CCCC2)c(=O)c2c(C)c(-n3nccn3)sc21)OCCC#N [Compound I-196] , Collectotrichum graminicola (Cg), IC90 = 10 µg/mL

Summary: CCOC(=O)c1sc2c(c1C)c(=O)n(C(C)(C)C(=O)NC(C)C)c(=O)n2C[C@H](OCCC#N)c1ccccc1OC [Compound I-233] , Collectotrichum graminicola (Cg), IC90 = 0.4 µg/mL

###

Test system: Rhizoctonia solani (Rs)
Assay: In vitro pathogen growth inhibition assay, Rs (mycelial plugs)
Assay type: cell-based
Settings: Rhizoctonia solani, 48 h, ≥90% growth inhibition; mycelial plugs; 48 hours; vs 2% DMSO control; read-out: Compound Concentration (ppm) sufficient for ≥90% inhibition of Rs
Procedure: A growth inhibition assay was conducted to determine the ability of compounds to control the growth of fungal pathogens, such as Botrtyis cinerea (Bc), Collectotrichum graminicola (Cg), Diplodia maydis (Dm), Fusarium moniliforme (Fm), Fusarium virguliforme (Fv), Phytophthora capsici (Pc), Rhizoctonia solani (Rs), and Septoria tritici (St). […] Plate readings were repeated at both 24 and 48 hours. […]
Some molecules, each annotated with its measured IC90.
Reply numerically in µg/mL, unit not repeated.

Solved entries (count: 2):
chemical_string=CCNC(=O)C(C)(C)n1c(=O)c2c(C)c(-n3nccn3)sc2n(C[C@H](OC(C)=O)c2cc(F)ccc2OC)c1=O unit_symbol=µg/mL assay_value=2
chemical_string=CCOC(=O)c1sc2c(c1C)c(=O)n(C(C)(C)C(=O)NC(C)C)c(=O)n2C[C@H](OCC#N)c1cc(F)ccc1OC unit_symbol=µg/mL assay_value=0.4

Summary: `CCOC(=O)c1sc2c(c1C)c(=O)n(C(C)(C)C(=O)NC(C)C)c(=O)n2C[C@H](OCCS(C)(=O)=O)c1cc(F)ccc1OC` , Rhizoctonia solani (Rs), IC90 = 0.4

Summary: `COc1ccc(F)cc1[C@H](Cn1c(=O)n([C@@H](C)C(=O)N2CCCC2)c(=O)c2c(C)c(-n3nccn3)sc21)OCCC#N` , Rhizoctonia solani (Rs), IC90 = 0.08

Summary: `COc1ccc(F)cc1[C@H](Cn1c(=O)n([C@H](C)C(=O)NC2CCC2)c(=O)c2c(C)c(-n3cccn3)sc21)OCCC#N` , Rhizoctonia solani (Rs), IC90 = 0.08

Summary: `CCOC(=O)c1sc2c(c1C)c(=O)n(C(C)(C)C(N)=O)c(=O)n2C[C@H](OCCO)c1cc(F)ccc1OC` , Rhizoctonia solani (Rs), IC90 = 2
